system: murine neural precursor cells (neurosphere cultures); test: HTS of LOPAC library against secondary neurosphere cultures, MTT proliferation assay at 3 μM, day 7 (z score, P value); assay type: cell-based, mouse; conditions: 168 h, 3 µM
Structures can show the parent of a compound that is named as a salt.
PARAMETER_MEASURED: Z score
# print the numeric value only

Field: example entries. Status: answers known.
MOLECULE | Z score
CCCn1c(=O)c2[nH]c(C3CCCC3)nc2n(CCC)c1=O | −0.070
CCC(C)N(C)C(=O)c1cc2ccccc2c(-c2ccccc2Cl)n1 (stereo not shown) | −0.468
CC(=O)N1CCN(c2ccc(OCC3COC(Cn4ccnc4)(c4ccc(Cl)cc4Cl)O3)cc2)CC1 (stereo not shown) | 0.586

QUERY: # get_value(readout= Z score, system= murine neural precursor cells (neurosphere cultures)) for CC(N)C(=O)OC(C)(C)Cc1ccc(Cl)cc1 (stereo not shown) [Alaproclate hydrochloride]
RESULT: −0.172

QUERY: Try Clc1ccc(C(c2ccc(Cl)cc2)n2cc[n+](CC(OCc3ccc(Cl)cc3Cl)c3ccc(Cl)cc3Cl)c2)cc1 (stereo not shown) [Calmidazolium chloride] next.
RESULT: −8.582

QUERY: Can you check COC(=O)C(C)(N)Cc1ccc(O)cc1.Cl (racemic) next?
RESULT: 0.370

QUERY: What do you have for Oc1cc(-c2ccccc2)nc2nc(Cl)ccc12 ?
RESULT: −0.401

QUERY: Now consider Cc1ccc(N(CC2=NCCN2)c2cccc(O)c2)cc1 [Phentolamine mesylate] and answer again.
RESULT: −0.319

QUERY: Thanks! And O=C(O)c1cccnc1C(=O)O ?
RESULT: −2.419

QUERY: Another molecule: C=CC[C@H](N)C(=O)O
RESULT: −1.155

QUERY: Same thing, different molecule: CC[C@@H]1C(=O)OC[C@@H]1Cc1cncn1C [Pilocarpine nitrate]
RESULT: −1.213

QUERY: Check N[C@@H](Cc1ccc(F)cc1)C(=O)O too.
RESULT: −0.702

QUERY: What about this molecule? Br.Br.N=C(N)NCCSSCCNC(=N)N [Guanidinoethyl disulfide dihydrobromide]
RESULT: −4.521

QUERY: Same lookup for Cn1cnc2c(NCc3ccccc3)nc(NCCO)nc21 , please.
RESULT: 1.553

====

The following compounds are shown together with reported Z score values.
test system: murine neural precursor cells (neurosphere cultures); assay: HTS of LOPAC library against secondary neurosphere cultures, MTT proliferation assay at 3 μM, day 7 (z score, P value); assay type: cell-based, mouse; conditions: 168 h, 3 µM
Counter-ions that a name gives are not always drawn. Residues, ends and D or L forms follow the SMILES beside them. *: point of attachment. Cbz = O=C(OCc1ccccc1)*

COMPOUND | RESULT
C[C@H](O)C(=O)C1=Nc2c(nc(N)[nH]c2=O)NC1 [Sepiapterin] | 1.795
CC1(C)CCC=[N+]1[O-] [5,5-Dimethyl-1-pyrroline-N-oxide] | −1.666
Cc1scc2c1N(C(=O)CN1CCN(C)CC1)c1ccccc1NC2=O [Telenzepine dihydrochloride] | 0.381

QUERY: What does the record list as Z score for O=C(/C=C/c1ccc(O)c(O)c1)OCCc1ccccc1 ?
RESULT: 1.306

QUERY: Now the same for CCCn1c(=O)c2c(ncn2C)n(CCC)c1=O
RESULT: −0.089

QUERY: Same thing, different compound: CSc1ccc2c(c1)C(N1CCN(C)CC1)Cc1ccccc1S2 (centres unmarked) [Methiothepin (38), Methiothepin, reference compound]
RESULT: 1.868

QUERY: Quick one: COC(=O)C1=C(C)NC(C)=C(C(=O)OC)C1c1ccccc1[N+](=O)[O-]
RESULT: −0.294

QUERY: Next: CC(C)[C@H](NC(=O)OCc1ccccc1)C(=O)N[C@H](C=O)Cc1ccccc1 [MDL 28170] (Cbz-Val-Phe-aldehyde)
RESULT: −1.139
